- measurementDescription: Tmax in rat at 3 mg/kg
- Format: ADME, organism-based
- Design: dose 3 mg/kg
- runParameters: in vivo
measuredAttribute: Tmax (h)

>>> print(df.to_string())
                                  smilesstr  measuredattribute  result
0  CS(=O)(=O)c1ccc(F)cc1C(=O)N1CCC(N(C2CC2)S(=O)(=O)c2cccc(C(F)(F)F)c2)CC1               Tmax     1.7

====

- measurementDescription: Plasma concentration in rat complete Freund's adjuvant-induced pain model at 10 mg/kg, po after 3 hrs
- Assay type: ADME, organism-based
- Parameters: dose 10 mg/kg, route oral
measuredAttribute: concentration at 3 h (nM)

>>> df
                                  smilesstr  resultunit  result
0  CS(=O)(=O)c1ccc(F)cc1C(=O)N1CCC(N(C2CC2)S(=O)(=O)c2cccc(C(F)(F)F)c2)CC1          nM    1660

====

- targetOrTestSystem: hERG (Homo sapiens, UniProt Q12809)
- Sequence (Q12809 whole entry): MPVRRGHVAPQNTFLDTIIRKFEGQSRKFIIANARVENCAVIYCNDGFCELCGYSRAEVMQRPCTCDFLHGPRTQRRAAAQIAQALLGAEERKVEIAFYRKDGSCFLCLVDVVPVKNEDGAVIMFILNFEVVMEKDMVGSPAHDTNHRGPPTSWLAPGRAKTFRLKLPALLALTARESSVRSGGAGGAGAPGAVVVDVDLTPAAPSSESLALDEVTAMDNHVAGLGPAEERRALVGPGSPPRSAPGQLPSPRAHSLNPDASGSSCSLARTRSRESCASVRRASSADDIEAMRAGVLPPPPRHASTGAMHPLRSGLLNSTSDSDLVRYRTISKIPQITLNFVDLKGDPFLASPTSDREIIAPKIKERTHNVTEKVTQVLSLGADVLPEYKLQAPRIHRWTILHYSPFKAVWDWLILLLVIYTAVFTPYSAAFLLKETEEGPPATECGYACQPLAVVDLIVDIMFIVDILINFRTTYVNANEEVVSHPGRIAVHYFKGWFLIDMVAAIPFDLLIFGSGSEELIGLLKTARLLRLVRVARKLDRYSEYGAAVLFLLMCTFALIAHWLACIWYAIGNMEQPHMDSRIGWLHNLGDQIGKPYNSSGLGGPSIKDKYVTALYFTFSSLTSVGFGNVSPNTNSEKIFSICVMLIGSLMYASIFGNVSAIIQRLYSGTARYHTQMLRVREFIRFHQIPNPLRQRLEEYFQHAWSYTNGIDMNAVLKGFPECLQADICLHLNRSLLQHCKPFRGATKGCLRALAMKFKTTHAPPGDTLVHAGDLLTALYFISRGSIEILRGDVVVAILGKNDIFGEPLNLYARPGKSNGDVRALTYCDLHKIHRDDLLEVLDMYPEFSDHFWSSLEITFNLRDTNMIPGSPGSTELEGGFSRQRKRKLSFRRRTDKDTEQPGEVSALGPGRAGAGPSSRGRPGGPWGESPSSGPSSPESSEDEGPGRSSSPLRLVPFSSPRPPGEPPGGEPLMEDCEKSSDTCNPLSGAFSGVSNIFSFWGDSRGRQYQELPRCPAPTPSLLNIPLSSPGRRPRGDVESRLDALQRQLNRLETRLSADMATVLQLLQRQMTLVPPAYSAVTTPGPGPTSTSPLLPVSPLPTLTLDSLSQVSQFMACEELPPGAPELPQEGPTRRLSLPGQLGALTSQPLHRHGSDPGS
- measurementDescription: Displacement of [35S]-MK-0499 from human ERG at 10 uM
- runParameters: probe [35S]-MK-0499
So basically: inhibition at 10 µM at 70% or higher? That is True. Lower than 70%? That is False.

                                  smilesstr  assignedlabel
0  CS(=O)(=O)c1ccc(F)cc1C(=O)N1CCC(N(C2CC2)S(=O)(=O)c2cccc(C(F)(F)F)c2)CC1          False
1  O=C(c1ccc(OC(F)(F)F)cc1)N1CCC(N(C2CC2)S(=O)(=O)c2cccc(C(F)(F)F)c2)CC1           True
2  CS(=O)(=O)c1ccccc1C(=O)N1CCC(N(C2CC2)S(=O)(=O)c2cccc(C(F)(F)F)c2)CC1          False
3  O=C(c1ccccc1OC(F)(F)F)N1CCC(N(C2CC2)S(=O)(=O)c2cccc(C(F)(F)F)c2)CC1           True
4  CN(C)c1cccc(C(=O)N2CCC(N(C3CC3)S(=O)(=O)c3cccc(C(F)(F)F)c3)CC2)c1          False
5  COC(=O)c1cccc(C(=O)N2CCC(N(C3CC3)S(=O)(=O)c3cccc(C(F)(F)F)c3)CC2)c1          False

====

- measurementDescription: Metabolic stability in human liver microsomes assessed as compound remaining at 1 uM after 1 hr
- Format: ADME, Microsome
- runParameters: read-out: Stability
Below, each entry is listed alongside its reported remaining at 1 h, 1 µM.
measuredAttribute: remaining at 1 h, 1 µM (%)

>>> print(df.to_string())
                                  smilesstr       measuredattribute  result
0  CS(=O)(=O)c1ccc(F)cc1C(=O)N1CCC(N(C2CC2)S(=O)(=O)c2cccc(C(F)(F)F)c2)CC1  remaining at 1 h, 1 µM      30
1  CS(=O)(=O)c1ccccc1C(=O)N1CCC(N(C2CC2)S(=O)(=O)c2cccc(C(F)(F)F)c2)CC1  remaining at 1 h, 1 µM      73
2  O=C(c1ccccc1OC(F)(F)F)N1CCC(N(C2CC2)S(=O)(=O)c2cccc(C(F)(F)F)c2)CC1  remaining at 1 h, 1 µM       1

====

- measurementDescription: Plasma concentration rat at 100 mg/kg, po after 3 hrs
- Format: ADME, organism-based
- Design: dose 100 mg/kg, route oral
measuredAttribute: concentration at 3 h (µM)

>>> print(df.to_string())
                                  smilesstr     measuredattribute  resultunit  result
0  CS(=O)(=O)c1ccc(F)cc1C(=O)N1CCC(N(C2CC2)S(=O)(=O)c2cccc(C(F)(F)F)c2)CC1  concentration at 3 h          µM     9.5

====

- measurementDescription: Plasma concentration in rat complete Freund's adjuvant-induced pain model at 30 mg/kg, po after 3 hrs
- Assay type: ADME, organism-based
- Parameters: dose 30 mg/kg, route oral
measuredAttribute: concentration at 3 h (µM)

>>> print(df.to_string())
                                  smilesstr  resultunit  result
0  CS(=O)(=O)c1ccc(F)cc1C(=O)N1CCC(N(C2CC2)S(=O)(=O)c2cccc(C(F)(F)F)c2)CC1          µM     1.6
1  CS(=O)(=O)c1ccccc1C(=O)N1CCC(N(C2CC2)S(=O)(=O)c2cccc(C(F)(F)F)c2)CC1          µM     2.4

====

Below, each entry is listed alongside its reported inhibition at 1 µM.
- targetOrTestSystem: hERG (Homo sapiens)
- measurementDescription: Displacement of [35S]-MK-0499 from human ERG at 1 uM
- runParameters: probe [35S]-MK-0499
measuredAttribute: inhibition at 1 µM (%)

>>> print(df.to_string())
                                  smilesstr  result
0  CS(=O)(=O)c1ccccc1C(=O)N1CCC(N(C2CC2)S(=O)(=O)c2cccc(C(F)(F)F)c2)CC1       1
1  O=C(c1cccc(OC(F)(F)F)c1)N1CCC(N(C2CC2)S(=O)(=O)c2cccc(C(F)(F)F)c2)CC1       4
2  CS(=O)(=O)c1ccc(F)cc1C(=O)N1CCC(N(C2CC2)S(=O)(=O)c2cccc(C(F)(F)F)c2)CC1     1.6
3  O=C(c1ccccc1OC(F)(F)F)N1CCC(N(C2CC2)S(=O)(=O)c2cccc(C(F)(F)F)c2)CC1      21

====

- measurementDescription: Fraction unbound in human plasma
- Format: ADME, cell-free
measuredAttribute: fraction unbound

>>> df
                                  smilesstr  result
0  CS(=O)(=O)c1ccc(F)cc1C(=O)N1CCC(N(C2CC2)S(=O)(=O)c2cccc(C(F)(F)F)c2)CC1   0.014

====

- measurementDescription: Plasma concentration in rat SNL neuropathic pain model at 10 mg/kg, po after 3.5 hrs
- Format: ADME, organism-based
- Parameters: dose 10 mg/kg, route oral
measuredAttribute: concentration at 3.5 h

>>> df
                      smilesstr   result
0  NS(=O)(=O)c1cccc(C(F)(F)F)c1  35.6 µM

====

- measurementDescription: Oral bioavailability in rat at 3 mg/kg
- Type: ADME, organism-based
- runParameters: in vivo
Below, each entry is listed alongside its reported bioavailability.
measuredAttribute: bioavailability (%)

>>> print(df.to_string())
                                  smilesstr  measuredattribute  result
0  CS(=O)(=O)c1ccc(F)cc1C(=O)N1CCC(N(C2CC2)S(=O)(=O)c2cccc(C(F)(F)F)c2)CC1    bioavailability      99
1  CS(=O)(=O)c1ccccc1C(=O)N1CCC(N(C2CC2)S(=O)(=O)c2cccc(C(F)(F)F)c2)CC1    bioavailability     100
2  O=C(c1ccccc1OC(F)(F)F)N1CCC(N(C2CC2)S(=O)(=O)c2cccc(C(F)(F)F)c2)CC1    bioavailability      47

====

- measurementDescription: Oral bioavailability in rat
- Format: ADME, organism-based
- runParameters: in vivo
measuredAttribute: bioavailability

                                  smilesstr  result
0  CCCN(C1CCN(Cc2c(OC)cccc2OC)CC1)S(=O)(=O)c1cccc(C(F)(F)F)c1      4%

====

- targetOrTestSystem: Nuclear receptor subfamily 1 group I member 2 (Homo sapiens, UniProt O75469)
- Sequence (O75469 whole entry): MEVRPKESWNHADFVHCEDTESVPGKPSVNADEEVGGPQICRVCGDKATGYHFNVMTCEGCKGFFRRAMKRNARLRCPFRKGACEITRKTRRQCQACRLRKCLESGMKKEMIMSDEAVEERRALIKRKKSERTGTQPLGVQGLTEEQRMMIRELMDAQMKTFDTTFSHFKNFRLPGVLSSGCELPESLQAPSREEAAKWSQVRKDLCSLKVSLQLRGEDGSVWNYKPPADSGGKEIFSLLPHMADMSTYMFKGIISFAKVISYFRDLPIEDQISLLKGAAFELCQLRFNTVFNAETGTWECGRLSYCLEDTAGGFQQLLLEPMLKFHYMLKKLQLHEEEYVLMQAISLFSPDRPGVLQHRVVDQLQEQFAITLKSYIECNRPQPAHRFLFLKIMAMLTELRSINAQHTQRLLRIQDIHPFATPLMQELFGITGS
- measurementDescription: Activation of PXR
measuredAttribute: EC50 (nM)

>>> print(df.to_string())
                                  smilesstr  measuredattribute  result
0  CS(=O)(=O)c1ccc(F)cc1C(=O)N1CCC(N(C2CC2)S(=O)(=O)c2cccc(C(F)(F)F)c2)CC1               EC50     430
